Test system: Viola tricolor (VIOTR)
Assay: Pre-emergence herbicidal action against VIOTR
Format: in vivo
Conditions: 80 g/ha, scored visually after about 3 weeks vs untreated controls
measurementName: Pre-emergence action against VIOTR

- Cn1ncc(C(=O)c2ccc(C(F)(F)F)c3c2OCC[S+]3[O-])c1O (stereo not shown) [Example 1-30]: 100%
- CCn1ncc(C(=O)c2ccc(C(F)(F)F)c3c2OCCS3)c1O [Example 1-20]: 100%
- Cc1nn(C)c(O)c1C(=O)c1ccc(C(F)(F)F)c2c1OCCS2(=O)=O [Example 1-55]: 90%
- CCn1ncc(C(=O)c2ccc(C(F)(F)C(F)(F)F)c3c2OCS3)c1O [Example 1-131]: 100%

* * *

Measured Pre-emergence action against VIOTR accompanies every entry in the list below.
System: Viola tricolor (VIOTR)
Test: Pre-emergence herbicidal action against VIOTR
Assay type: in vivo
Settings: 80 g/ha, scored visually after about 3 weeks vs untreated controls
measurementName: Pre-emergence action against VIOTR (%)

• Cc1nn(C)c(O)c1C(=O)c1ccc(C(F)(F)F)c2c1SCCS2 = 90
• Cn1ncc(C(=O)c2ccc(C(F)(F)F)c3c2SCS3)c1O = 100
• Cn1ncc(C(=O)c2ccc(C(F)(F)F)c3c2OCCS3(=O)=O)c1O = 100
• Cn1nc(C2CC2)c(C(=O)c2ccc(C(F)(F)F)c3c2OCS3)c1O = 90
• Cn1ncc(C(=O)c2ccc(C(F)(F)F)c3c2SCCS3)c1O = 100
• CCn1ncc(C(=O)c2ccc(C(F)(F)F)c3c2OCC[S+]3[O-])c1O (stereo not drawn) = 100
• CCn1ncc(C(=O)c2ccc(C(F)(F)F)c3c2SCS3)c1O = 100
• CCn1ncc(C(=O)c2ccc(C(F)(F)F)c3c2SCCS3)c1O = 100
• Cc1nn(C)c(O)c1C(=O)c1ccc(C(F)(F)F)c2c1OCCS2 = 100

* * *

Tested on: Abutilon theophrasti (ABUTH)
Assay: Post-emergence herbicidal action against ABUTH
Assay type: in vivo
Conditions: 20 g/ha, post-emergence at one-leaf stage, rated visually after about 3 weeks vs untreated controls
Measured Post-emergence action against ABUTH accompanies every entry in the list below.
measurementName: Post-emergence action against ABUTH (%)

- CCn1ncc(C(=O)c2ccc(C(F)(F)F)c3c2OCS3)c1O [Example 1-18]: 80
- Cn1nc(C2CC2)c(C(=O)c2ccc(C(F)(F)F)c3c2OCCS3(=O)=O)c1O [Example 1-119]: 90
- Cn1nc(C2CC2)c(C(=O)c2ccc(C(F)(F)F)c3c2OCC[S+]3[O-])c1O (stereo not drawn) [Example 1-116]: 90
- CCn1ncc(C(=O)c2ccc(C(F)(F)F)c3c2OCCS3)c1O [Example 1-20]: 80
- Cn1ncc(C(=O)c2ccc(C(F)(F)F)c3c2OCC[S+]3[O-])c1O (stereo not drawn) [Example 1-30]: 80
- CCn1ncc(C(=O)c2ccc(C(F)(F)F)c3c2OCCS3(=O)=O)c1O [Example 1-50]: 90
- Cc1nn(C)c(O)c1C(=O)c1ccc(C(F)(F)F)c2c1OCC[S+]2[O-] (stereo not drawn) [Example 1-40]: 80
- CCn1ncc(C(=O)c2ccc(C(F)(F)F)c3c2SCS3)c1O [Example 1-63]: 80
- Cn1ncc(C(=O)c2ccc(C(F)(F)F)c3c2OCS3)c1O [Example 1-13]: 90
- CCn1ncc(C(=O)c2ccc(C(F)(F)F)c3c2OCC[S+]3[O-])c1O (stereo not drawn) [Example 1-35]: 90
- Cn1ncc(C(=O)c2ccc(C(F)(F)F)c3c2OC[S+]3[O-])c1O (stereo not drawn) [Example 1-28]: 90
- Cc1nn(C)c(O)c1C(=O)c1ccc(C(F)(F)F)c2c1OCCS2(=O)=O [Example 1-55]: 90
